System: SR leukemia
Experiment: NCI tumour cell line growth inhibition, 48 h
TGI for assorted molecules
Readout kind: TGI (µM)

Nc1cc2cccc[n+]2c2cc(Cl)ccc12 :: 16.2
O=c1cc(/C=C/c2ccc(O)c(O)c2)oc(/C=C/c2ccc(O)c(O)c2)c1 :: 8.52
N#C/C(=C1\OC(=O)C(c2ccc(Br)cc2)=C1O)c1ccc(Br)cc1 :: 55.6
Cc1[c-]onc1C.Cc1[c-]onc1C.[Ag].[Ag].[NH-]S(=O)(=O)c1ccc(N=Nc2cc(N=Nc3ccc(S([NH-])(=O)=O)cc3)c3c(NC(=O)C(Cl)Cl)cccc3c2OC(=O)C(Cl)Cl)cc1 :: 42.5
